Tested on: DU-145 prostate
assayText: NCI-60 one-dose screen, 48 h (100 = growth as untreated, 0 = no growth, -100 = all killed)
assayConditions: 10 µM unless noted
This is part of a sample that, as a whole, favours compounds with a hit. Of some 83,000 tested, about 20% had one in any assay.
Satisfied means recorded growth is 80% or above; Not satisfied means it is below 80%.

>>> classification("O=C(CO[N+](=O)[O-])Nc1ccc(C(=O)/C=C/c2ccc3c(c2)OCO3)cc1")
"Satisfied"
>>> classification("COc1c2ccccc2c(OC)c2[nH]c(=O)ccc12")
"Not satisfied"
>>> classification("CCN(CC)CC#CCOC(=O)[C@]1(C)CCC[C@@]2(C)[C@H]1CC(C=O)=C1C=C(C(C)C)CC[C@@H]12")
"Satisfied"
>>> classification("CCOC(=O)/C=C/c1ccc(C(=O)OCC)[nH]1")
"Not satisfied"
>>> classification("CC/C=C\\C[C@H](F)C/C=C1/C(=O)C=C[C@@H]1C/C=C\\CCCC(=O)OC")
"Not satisfied"
>>> classification("O=C1c2c[n+](Cc3ccccc3)ccc2-c2nc3ccccc3c3ccnc1c23")
"Not satisfied"
>>> classification("O=C1/C(=C/c2ccc(Cl)c(Cl)c2)CN(C(=O)CCN2CCC(=NO)CC2)C/C1=C\\c1ccc(Cl)c(Cl)c1")
"Not satisfied"
>>> classification("CS(CCCCN=C=S)=NC(=O)c1c(F)c(F)c(F)c(F)c1F (centres undefined)")
"Not satisfied"
>>> classification("C=C1CCC2C3(C)COC(c4ccccc4Br)OC3CCC2(C)C1C/C=C1/C(=O)OCC1OC(C)=O (centres undefined)")
"Not satisfied"
>>> classification("CC1=C(NCCN2CCCC2)C(=O)c2c(OCc3ccc(C(F)(F)F)cc3)cccc2C1=O")
"Satisfied"
>>> classification("COC(=S)SCN(CSC(=S)OC)c1ccc(Cl)cc1")
"Satisfied"
>>> classification("COc1cc(-c2c3sc(=O)[nH]c3nc3c2c(=O)[nH]n3C(C)C)cc2c1OCO2")
"Satisfied"
>>> classification("CCOC(=O)c1c2c(n3ccc(NC(=O)CCN(CC)CC)cc13)C(=O)c1ncccc1C2=O")
"Not satisfied"
>>> classification("CN1CCN(Cc2ccc(NC(=O)c3cncc(C#Cc4cncc5nccnc45)c3)cc2C(F)(F)F)CC1")
"Not satisfied"
>>> classification("C=C1CC[C@@H]2[C@](C)(COC(C)=O)[C@H](OC(C)=O)CC[C@@]2(C)[C@@H]1CC(NCc1ccc(F)cc1)C1=CCOC1=O (some centres undefined)")
"Not satisfied"
>>> classification("NCCN1CCN(c2nccc(-c3ccc4ccccc4c3)n2)CC1")
"Satisfied"
>>> classification("COc1ccc(-c2cc(C(=O)N=Nc3c(O)[nH]c4ccccc34)no2)cc1")
"Satisfied"
>>> classification("COc1ccc(CN(c2ccc(C)cc2)C2OC(=O)c3ccccc32)cc1OC (centres undefined)")
"Satisfied"
>>> classification("COc1ccc(-n2cc(-c3ccccc3)c3c(SCC(=O)N/N=C/c4ccc([N+](=O)[O-])cc4)ncnc32)cc1")
"Satisfied"
>>> classification("C=CC[N+]1(CC)CCN=C1CCCCCCCCCCCCCCCCC (centres undefined)")
"Not satisfied"
>>> classification("Cn1cc(-c2nc(-c3c[nH]c4ccccc34)cs2)c2cccnc21")
"Not satisfied"
>>> classification("C[C@@]1(N2C(=O)OC[C@@H]2c2ccccc2)C(=O)N([C@H](CC(=O)N2CCC(N3CCCCC3)CC2)C(=O)NCc2cccc(C(F)(F)F)c2)[C@@H]1/C=C/c1ccccc1")
"Not satisfied"
>>> classification("CCCCCn1cnc2c(=S)nc[nH]c21")
"Satisfied"
>>> classification("CCc1ccccc1NC(=O)c1sc2nc3c(cc2c1N)C(=O)CCC3")
"Not satisfied"
>>> classification("CC1(C)OCC2OC3(C(=O)O)OC(C)(C)OC3C2O1 (centres undefined)")
"Satisfied"
>>> classification("CC[C@@H](C)OC(=O)c1nn(C(C)=O)c2ccccc12")
"Satisfied"
>>> classification("O=C(/C=C/c1ccc(Cl)cc1)c1ccc(O)c(CN2CCN(c3cc4c(cc3F)c(=O)c(C(=O)O)cn4C3CC3)CC2)c1")
"Not satisfied"
>>> classification("Cc1cc2cc3cc(C)c(N(C)C)cc3[n+](C)c2cc1N(C)C")
"Not satisfied"
>>> classification("CCNS(=O)(=O)c1ncnc2nc[nH]c12")
"Satisfied"
>>> classification("CS(=O)(CCCCN=C=S)=NC(=O)c1c(F)c(F)c(F)c(F)c1F (centres undefined)")
"Satisfied"
>>> classification("O=C(Cc1ccccc1)c1ccc(Cl)cc1")
"Satisfied"
>>> classification("N=S(=O)(NC(=O)c1ccc(Cl)cc1Cl)c1ccc(Br)s1 (centres undefined)")
"Satisfied"
>>> classification("COc1ccc(-c2cc(-c3cccnc3)nc3sc4c(=O)n(-c5ccc(C)cc5)cnc4c23)cc1OC")
"Satisfied"
>>> classification("COC1C/C(=N\\O)C2OC(c3ccccc3)OCC2O1 (centres undefined)")
"Satisfied"
>>> classification("Cc1sc2nc3[nH]/c(=C\\c4ccc(Cl)cc4)c(=O)n3c(=O)c2c1C")
"Satisfied"
>>> classification("COc1ccc(-c2nn(-c3ccccc3)cc2/C=C/C(=O)OCc2cn(-c3ccc(F)c(Cl)c3)nn2)cc1")
"Satisfied"
>>> classification("COc1cccc(/C=C2/C(=O)N(Cc3ccco3)SC2=S)c1OC")
"Satisfied"

Value source: PubChem BioAssay (NCI)
